B1: LINE1-full (parent)
chain: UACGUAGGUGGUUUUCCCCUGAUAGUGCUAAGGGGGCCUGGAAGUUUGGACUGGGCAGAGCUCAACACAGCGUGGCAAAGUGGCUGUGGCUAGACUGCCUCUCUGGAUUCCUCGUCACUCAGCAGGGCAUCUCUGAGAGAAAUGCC

Variants of: B1
Experiment: self-cleavage, relative activity (ratio to wild type); higher = more cleavage; in vitro, sequencing; the parent is a self-cleaving ribozyme
Entry class follows self-cleavage: low-valued: < 0.3; mid-valued: ≥ 0.3 and < 1; high-valued: ≥ 1

Record excerpt, results attached:
Variant Descriptor	Label Value
U20A A79G	mid-valued
G21A A77G	high-valued

stdin: // return the class label for G89C A138G
stdout: low-valued

stdin: // same read-out, input: A2G U62G
stdout: mid-valued

stdin: // same read-out, input: A2G G106U
stdout: high-valued

stdin: // same read-out, input: A92U U109A
stdout: mid-valued

stdin: // same read-out, input: U9G U85C
stdout: mid-valued

stdin: // same read-out, input: A69G A124U
stdout: low-valued

These measurements were taken from the RNAGym collection of RNA variant scans (doi:10.7554/elife.90254).
